Assay: log P by HPLC (OECD Guideline 117), method [a] acidic range
Type: physicochemical
Settings: HPLC, method [a] acidic range
Procedure: The log P values were determined analogously to OECD Guideline 117 (EC Directive 92/69/EEC) by HPLC (high-performance liquid chromatography) using reversed-phase columns (C 18), by the following methods: [a] The LC-MS determination in the acidic range is effected at pH 2.7 with 0.1% aqueous formic acid and acetonitrile (contains 0.1% formic acid) as eluents; linear gradient from 10% acetonitrile to 95% acetonitrile.
measurement-type: logP[a]

Solved entries:
compound: COc1nn(-c2cc(SCC(F)(F)F)c(Br)cc2F)c(=O)n1C1CC1
logP[a]: 3.43
--
compound: Cc1cc(F)c(-n2nc(OCc3ccccc3)n(C)c2=O)cc1[S+]([O-])CC(F)(F)F (centres unmarked)
logP[a]: 2.92
--
compound: Cc1cc(F)c(-n2nc(OCC(C)(C)C)n(C)c2=O)cc1SCC(F)(F)F
logP[a]: 4.35

(A) C=C(C)CCOc1nn(-c2cc(SCC(F)(F)F)c(C)cc2F)c(=O)n1C1CC1
(B) C=CCn1c([S+]([O-])CC)nn(-c2cc([S+]([O-])CC(F)(F)F)c(C)cc2F)c1=O (centres unmarked)
For the pair A and B , which entry has the numerically smaller recorded logP[a]? Label of pick, please.
B

(P) Cc1cc(F)c(-n2nc([S+](C)[O-])n(C)c2=O)cc1[S+]([O-])CC(F)(F)F (centres unmarked)
(Q) CCCc1nn(-c2cc([S+]([O-])CC(F)(F)F)c(C)cc2F)c(=O)n1C1CC1 (racemic)
Which value of logP[a] is greater, the one for P or the one for Q ? Label of pick, please.
Q

(1) Cc1ccc(-n2nc(C(F)(F)F)n(N)c2=O)cc1SCC(F)(F)F
(2) COCCOC1=CC(=O)N(c2cc([S+]([O-])CC(F)(F)F)c(C)cc2F)C1 (centres unmarked)
For the pair 1 and 2 , which entry has the numerically smaller recorded logP[a]? Label of pick, please.
2
(2: 1.92, 1: 3.38)

====

assay: log P by HPLC (OECD Guideline 117), method [a] acidic range; format: physicochemical; conditions: HPLC, method [a] acidic range
measurement-type: logP[a]

(1) CCc1nn(-c2cc(SCC(F)(F)F)c(C)cc2F)c(=O)o1
(2) CNn1c(C2CC2)nn(-c2cc([S+]([O-])CC(F)(F)F)c(C)cc2F)c1=O (centres unmarked)
For the pair 1 and 2 , which entry has the numerically smaller recorded logP[a]? Label of pick, please.
2
(2: 2.09, 1: 3.53)

====

test: log P by HPLC (OECD Guideline 117), method [a] acidic range; type: physicochemical; conditions: HPLC, method [a] acidic range
measurement-type: logP[a]

Solved entries:
compound: Cc1cc(F)c(-n2ncn(C3CC3)c2=O)cc1SCC(F)(F)F
measurement-type: logP[a]
reported-result: 2.62
--
compound: Cc1cc(F)c(-n2nc(OC(C)(C)C)n(C)c2=O)cc1[S+]([O-])CC(F)(F)F (stereo not drawn)
measurement-type: logP[a]
reported-result: 2.82
--
compound: Cc1cc(F)c(-n2nc(OCC(F)(F)F)n(C3CC3)c2=O)cc1[S+]([O-])CC(F)(F)F (stereo not drawn)
measurement-type: logP[a]
reported-result: 2.83
--
compound: Cc1cc(F)c(-n2nc(N(C)C)n(C3CC3)c2=O)cc1[S+]([O-])CC(F)(F)F (racemic)
measurement-type: logP[a]
reported-result: 2.17
--
compound: CCCOc1nn(-c2cc([S+]([O-])CC(F)(F)F)c(C)cc2F)c(=O)n1C1CC1 (stereo not drawn)
measurement-type: logP[a]
reported-result: 2.83

(P) Cc1cc(F)c(-n2nc([S+]([O-])Cc3ccccc3)n(C)c2=O)cc1[S+]([O-])CC(F)(F)F (stereo not drawn)
(Q) Cc1cc(F)c(-n2nc(C(C)C)n(C3CC3)c2=O)cc1SCC(F)(F)F
For the pair P and Q , which entry has the numerically smaller recorded logP[a]? Label of pick, please.
P
(P: 2.34, Q: 3.59)

(I) Cc1cc(F)c(-n2nc([S+]([O-])C(C)C)n(C3CC3)c2=O)cc1SCC(F)(F)F (stereo not drawn)
(II) COCCc1nn(-c2cc([S+]([O-])CC(F)(F)F)c(C)cc2F)c(=O)n1C1CC1 (racemic)
(III) Cc1cc(F)c(-n2nc(C(C)(C)C)oc2=O)cc1SCC(F)(F)F
Rank items: key logP[a], increasing. Reply with the labels, ordered as the question asks.
II, I, III
(II: 2.03, I: 2.99, III: 4.30)

(1) Cc1cc(F)c(-n2nc(Cl)n(C)c2=O)cc1SCC(F)(F)F
(2) Cc1cc(F)c(-n2nc(C3CC3)n(C)c2=O)cc1[S+]([O-])CC(F)(F)F (racemic)
Which value of logP[a] is greater, the one for 1 or the one for 2 ? Label of pick, please.
1
(1: 3.07, 2: 1.99)

(A) Cc1cc(F)c(-n2nc(CCOC(C)C)n(C3CC3)c2=O)cc1[S+]([O-])CC(F)(F)F (stereo not drawn)
(B) Cc1cc(F)c(-n2nc(C(C)(C)C)n(C3CC3)c2=O)cc1SCC(F)(F)F
For the pair A and B , which entry has the numerically smaller recorded logP[a]? Label of pick, please.
A

(I) CCC(C)c1nn(-c2cc([S+]([O-])CC(F)(F)F)c(C)cc2F)c(=O)n1C1CC1 (racemic)
(II) CC(C)(C)COc1nn(-c2cc(SCC(F)(F)F)c(Cl)cc2F)c(=O)n1C1CC1
For the pair I and II , which entry has the numerically smaller recorded logP[a]? Label of pick, please.
I
(I: 2.86, II: 4.95)

(I) Cc1cc(F)c(-n2nnn(CC(F)(F)F)c2=O)cc1[S+]([O-])CC(F)(F)F (racemic)
(II) C=CCn1c(SCC)nn(-c2cc(SCC(F)(F)F)c(C)cc2F)c1=O
Which value of logP[a] is greater, the one for I or the one for II ? Label of pick, please.
II

(1) Cc1cc(F)c(-n2ncn(-c3ccc(F)cc3)c2=O)cc1[S+]([O-])CC(F)(F)F (racemic)
(2) COc1nn(-c2ccc(Br)c(SCC(F)(F)F)c2)c(=O)n1C
For the pair 1 and 2 , which entry has the numerically smaller recorded logP[a]? Label of pick, please.
1
(1: 2.45, 2: 3.60)

(A) Cc1cc(F)c(-n2nc(SC(C)C)n(C3CC3)c2=O)cc1[S+]([O-])CC(F)(F)F (stereo not drawn)
(B) Cc1cc(F)c(-n2nc(Br)n(C)c2=O)cc1[S+]([O-])CC(F)(F)F (stereo not drawn)
Which value of logP[a] is greater, the one for A or the one for B ? Label of pick, please.
A
